# Test system: Trypanosoma brucei brucei
# assayName: Antitrypanosomal activity against Trypanosoma brucei brucei assessed as trypanosome lysis using recombinant APOL1 protein G1 variant and measured by Alamar blue based fluorescene assay
# Assay type: functional, organism-based
observable: IC50

// worked examples, IC50 included
{"molecule": "O=C(CCc1c(-c2ccc(F)cc2)[nH]c2c(F)ccc(F)c12)N[C@H]1CCNC1=O", "IC50": "> 1000 nM"}
{"molecule": "CC1C[C@H](NC(=O)CCc2c(-c3ccc(F)cc3)[nH]c3c(F)cc(F)cc23)C(=O)N1 (some centres undefined)", "IC50": "250 nM"}
{"molecule": "N#Cc1cc(F)cc2c(CCC(=O)N[C@@H]3C(=O)NC[C@H]3O)c(-c3ccc(F)cc3)[nH]c12", "IC50": "< 250 nM"}
{"molecule": "Cc1ccc(-c2[nH]c3ccccc3c2CCC(=O)N[C@@H]2C(=O)NC[C@H]2O)cc1F", "IC50": "< 250 nM"}
{"molecule": "O=C(CCc1c(-c2ccc(F)cc2)[nH]c2c(F)cc(F)cc12)N[C@H]1C[C@@H](CO)NC1=O", "IC50": "> 1000 nM"}

Need IC50 for each of these molecules.
1. O=C(CCc1c(-c2ccccc2)[nH]c2ccc(F)cc12)N[C@@H]1C(=O)NC[C@H]1O
2. O=C(CCc1c(-c2ccccc2)[nH]c2ccccc12)N[C@@H]1C(=O)NC[C@H]1O
3. O=C(CCc1c(-c2ccc(OC(F)(F)F)cc2)[nH]c2ccccc12)N[C@@H]1C(=O)NC[C@H]1O
4. O=C(CCc1c(-c2ccccc2)[nH]c2cccc(F)c12)N[C@@H]1C(=O)NC[C@H]1O

A)
< 250 nM
< 250 nM
< 250 nM
250 nM

Need IC50 for each of these molecules.
1. COc1cc(F)cc2c(CCC(=O)N[C@@H]3C(=O)NC[C@H]3O)c(-c3ccc(F)cc3)[nH]c12
2. O=C1C[C@@H](NC(=O)CCc2c(-c3ccc(F)cc3)[nH]c3c(F)cc(F)cc23)C(=O)N1
3. O=C(CCc1c(-c2cc(F)cc(F)c2)[nH]c2c(F)cc(F)cc12)N[C@@H]1C(=O)NC[C@H]1O
4. Cc1cc(F)c2[nH]c(-c3ccc(F)cc3)c(CCC(=O)N[C@@H]3C(=O)NC[C@H]3O)c2c1
5. Cc1c(F)c(F)cc2c(CCC(=O)N[C@@H]3C(=O)NC[C@H]3O)c(-c3ccc(F)cc3)[nH]c12

A)
1. < 250 nM
2. 250 nM
3. 250 nM
4. < 250 nM
5. < 250 nM

---

# System: Trypanosoma brucei brucei
# assayName: Antitrypanosomal activity against Trypanosoma brucei brucei assessed as trypanosome lysis using recombinant APOL1 protein G1 variant and measured by Alamar blue based fluorescene assay
# Format: functional, organism-based
Kindly supply the reported IC50 values for the records listed here.

// worked examples, IC50 included
{"compound": "O=C(CCc1c(-c2ccc(F)cc2)[nH]c2c(F)c(F)ccc12)N[C@@H]1C(=O)NC[C@H]1O", "targetOfAssay": "Trypanosoma brucei brucei", "IC50": "< 250 nM"}
{"compound": "[2H]C(C(=O)N[C@@H]1C(=O)NC[C@H]1O)C([2H])c1c(-c2ccc(F)cc2)[nH]c2c(F)cc(F)cc12 (stereo partly drawn)", "targetOfAssay": "Trypanosoma brucei brucei", "IC50": "< 250 nM"}
{"compound": "O=C(CCc1c(-c2ccc(OC(F)F)cc2)[nH]c2c(F)cc(F)cc12)N[C@@H]1C(=O)NC[C@H]1O", "targetOfAssay": "Trypanosoma brucei brucei", "IC50": "< 250 nM"}
{"compound": "O=C(CCc1c(-c2ccccc2)[nH]c2cc(F)ccc12)N[C@@H]1C(=O)NC[C@H]1O", "targetOfAssay": "Trypanosoma brucei brucei", "IC50": "< 250 nM"}
{"compound": "Cc1ccc2[nH]c(-c3ccc(Br)cc3)c(CCC(=O)N[C@H]3CCNC3=O)c2c1", "targetOfAssay": "Trypanosoma brucei brucei", "IC50": "< 250 nM"}
{"compound": "O=C(CCc1c(-c2ccc(F)cc2)[nH]c2ccc(F)cc12)N[C@H]1CCNC1=O", "targetOfAssay": "Trypanosoma brucei brucei", "IC50": "< 250 nM"}

Need IC50 for each of these compounds.
1. O=C(CCc1c(-c2ccc(Cl)c(F)c2)[nH]c2ccccc12)N[C@@H]1C(=O)NC[C@H]1O
2. O=C(CCc1c(-c2ccc(F)cc2)[nH]c2c(Cl)cc(F)cc12)N[C@@H]1C(=O)NC[C@H]1O
3. Cc1cc(F)cc2c(CCC(=O)N[C@@H]3C(=O)NC[C@H]3O)c(-c3ccc(F)cc3)[nH]c12
4. CC1(NC(=O)CCc2c(-c3ccc(F)cc3)[nH]c3c(F)cc(F)cc23)CCNC1=O (stereo not drawn)
5. O=C(CCc1c(-c2ccc(F)cc2)[nH]c2ccc(F)cc12)N[C@@H]1CCNC1=O
6. O=C(CCc1c(-c2ccc(C(F)F)cc2)[nH]c2ccccc12)N[C@@H]1C(=O)NC[C@H]1O
7. O=C(CCc1c(-c2ccc(F)cc2)[nH]c2c(F)cccc12)N[C@@H]1C(=O)NC[C@H]1O
8. O=C(CCc1c(-c2ccc(F)cc2)[nH]c2ccc(O)cc12)N[C@H]1CCNC1=O

A)
1. < 250 nM
2. < 250 nM
3. < 250 nM
4. < 250 nM
5. 250 nM
6. < 250 nM
7. < 250 nM
8. > 1000 nM

Need IC50 for each of these compounds.
1. O=C(CCc1c(-c2ccc(OC(F)F)cc2)[nH]c2c(F)cc(F)cc12)N[C@H]1CCNC1=O
2. O=C(CCc1c(-c2ccc(F)cc2)[nH]c2c(F)cc(F)cc12)N[C@H]1C[C@H](CO)NC1=O
3. O=C(CCc1c(-c2ccc(F)cc2)[nH]c2c(F)cccc12)N[C@H]1CCNC1=O
4. COc1ccc(-c2[nH]c3ccccc3c2CCC(=O)N[C@@H]2C(=O)NC[C@H]2O)cc1
5. O=C(CCc1c(-c2ccccc2)[nH]c2ccc(F)cc12)N[C@H]1CCNC1=O
6. Cc1ccc(-c2[nH]c3ccccc3c2CCC(=O)N[C@@H]2C(=O)NC[C@H]2O)cc1

A)
< 250 nM
> 1000 nM
< 250 nM
< 250 nM
< 250 nM
< 250 nM
